Where do the numbers come from? From ChEMBL document CHEMBL1136751.

Molecular target: Peroxisome proliferator-activated receptor alpha (Homo sapiens, UniProt Q07869)
Sequence (Q07869 whole entry): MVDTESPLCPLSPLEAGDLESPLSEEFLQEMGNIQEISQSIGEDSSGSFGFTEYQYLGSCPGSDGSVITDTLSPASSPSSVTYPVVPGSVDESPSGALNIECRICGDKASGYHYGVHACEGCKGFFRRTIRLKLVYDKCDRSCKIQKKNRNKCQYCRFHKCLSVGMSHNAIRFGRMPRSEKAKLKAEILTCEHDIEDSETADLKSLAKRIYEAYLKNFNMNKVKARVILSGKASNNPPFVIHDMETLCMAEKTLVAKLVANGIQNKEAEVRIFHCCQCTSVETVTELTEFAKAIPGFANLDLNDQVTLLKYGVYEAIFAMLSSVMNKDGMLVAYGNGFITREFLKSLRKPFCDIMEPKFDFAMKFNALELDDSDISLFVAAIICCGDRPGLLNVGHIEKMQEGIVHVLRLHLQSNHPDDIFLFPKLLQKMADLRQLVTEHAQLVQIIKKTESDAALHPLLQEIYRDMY
Test: Agonistic activity for Peroxisome proliferator activated receptor alpha
pEC50: −log10 of the molar value.
Readout: pEC50

>>> numeric_value("CCO[C@@H](Cc1ccc(OCCc2ccc(OS(C)(=O)=O)cc2)cc1)C(=O)O [TESAGLITAZAR]")
5.92
